Experiment: Displacement of [3H]PK11195 from monkey PBR receptor
Design: species or system Macaca mulatta
readout-name: Ki (nM)

• COc1ccc(OC)c(CN(C(=O)CF)c2ccccc2Oc2ccccc2)c1 = 0.318

###

Experiment: Stability in rat brain assessed as unchanged drug level at 2 uCi upto 60 mins
Format: ADME, tissue-based
Conditions: read-out: Stability
readout-name: remaining at 1 h

• COc1ccc(OC)c(CN(C(=O)C[18F])c2ccccc2Oc2ccccc2)c1 = > 99.2%

###

Assay: Stability in rhesus monkey whole blood assessed as unchanged drug level after 45 mins by HPLC
Format: ADME, tissue-based, Macaca mulatta
Settings: read-out: Stability
readout-name: remaining at 0.75 h (%)

• COc1ccc(OC)c(CN(C(=O)C[18F])c2ccccc2Oc2ccccc2)c1 = 95.5

###

Assay: Stability in rat plasma at 3.78 ug/kg, iv after 94.3 mins
Format: ADME, organism-based
Conditions: 0.00378 mg/kg, read-out: Stability
readout-name: remaining at 1.57167 h (%)

- COc1ccc(OC)c(CN(C(=O)C[18F])c2ccccc2Oc2ccccc2)c1: 5.7

###

Experiment: Stability in rat brain assessed as drug recovery at 1.36 Ci/umol, iv after 30 mins
Format: ADME, organism-based
Settings: read-out: Stability
readout-name: remaining at 0.5 h (%)

* COc1ccc(OC)c(CN(C(=O)C[18F])c2ccccc2Oc2ccccc2)c1 | 85.1

###

Assay: Drug level in rat plasma assessed as drug recovery into acetonitrile analytes at >1.39 Ci/umol, iv after 60 mins
Format: ADME, organism-based
Conditions: read-out: Drug uptake
readout-name: recovery at 1 h (%)

* COc1ccc(OC)c(CN(C(=O)C[18F])c2ccccc2Oc2ccccc2)c1 | 93.2

###

Ki data for Translocator protein (Rattus norvegicus, UniProt P16257) follow.
readout-name: Ki (nM)

- COc1ccc(OC)c(CN(C(C)=O)c2cc(F)ccc2Oc2ccccc2)c1: 0.0726
- COc1ccc(OC)c(CN(C(=O)CF)c2ccccc2Oc2ccccc2)c1: 0.18

###

Assay: Drug level in rat urine assessed as drug recovery into acetonitrile analytes at >1.39 Ci/umol, iv after 60 mins
Type: ADME, organism-based
Conditions: read-out: Drug uptake
readout-name: recovery at 1 h (%)

* COc1ccc(OC)c(CN(C(=O)C[18F])c2ccccc2Oc2ccccc2)c1 | 80.3

The reported numbers originate from ChEMBL document CHEMBL1143326.
